Assay: Protein binding, human
Assay type: in vitro ADME
Threshold rule: Protein binding human greater than or equal to 40% is rule met; below that, rule not met.

> print(dat)
                                givensmiles  categorylabel
1  Br.Br.Br.CN[C@@H]1[C@H](O)[C@H](NC)[C@H]2O[C@]3(O)[C@H](O[C@@H]2[C@H]1O)O[C@H](C)C[C@H]3NC(=O)Cc1cc(Cl)c(F)cn1       rule met
2  Br.Br.Br.CN[C@@H]1[C@H](O)[C@H](NC)[C@H]2O[C@]3(O)[C@H](O[C@@H]2[C@H]1O)O[C@H](C)C[C@H]3NC(=O)Cc1ccc(OC)cn1       rule met
3  Br.Br.Br.CN[C@@H]1[C@H](O)[C@H](NC)[C@H]2O[C@]3(O)[C@H](O[C@@H]2[C@H]1O)O[C@H](C)C[C@H]3NC(=O)Cc1nccc(Cl)c1C       rule met
4  CN[C@@H]1[C@H](O)[C@H](NC)[C@H]2O[C@]3(O)[C@H](O[C@@H]2[C@H]1O)O[C@H](C)C[C@H]3NC(=O)Cc1ccc(O)cn1.Cl.Cl.Cl   rule not met

Qu. Record CN[C@@H]1[C@H](O)[C@H](NC)[C@H]2O[C@]3(O)[C@H](O[C@@H]2[C@H]1O)O[C@H](C)C[C@H]3NC(=O)Cc1ccc(OC(F)(F)F)cn1.Cl.Cl.Cl ; criterion: Protein binding human no lower than 40%. Met?
Ans. rule met

* * *

Experiment: Protein binding, mouse
Format: in vitro ADME
experimentalReadout: Protein binding mouse (%)
Numeric answer only, unit % assumed.

> print(dat)
                                givensmiles  recordednumber
1  Br.Br.Br.CN[C@@H]1[C@H](O)[C@H](NC)[C@H]2O[C@]3(O)[C@H](O[C@@H]2[C@H]1O)O[C@H](C)C[C@H]3NC(=O)Cc1nccc(Cl)c1C            36.4
2  CN[C@@H]1[C@H](O)[C@H](NC)[C@H]2O[C@]3(O)[C@H](O[C@@H]2[C@H]1O)O[C@H](C)C[C@H]3NC(=O)Cc1ccc(OC(F)(F)F)cn1.Cl.Cl.Cl            58.4
3  Br.Br.Br.CN[C@@H]1[C@H](O)[C@H](NC)[C@H]2O[C@]3(O)[C@H](O[C@@H]2[C@H]1O)O[C@H](C)C[C@H]3NC(=O)Cc1cc(Cl)c(F)cn1            39.3
4  Br.Br.Br.CN[C@@H]1[C@H](O)[C@H](NC)[C@H]2O[C@]3(O)[C@H](O[C@@H]2[C@H]1O)O[C@H](C)C[C@H]3NC(=O)Cc1cc(Cl)c(C)cn1            42.7
5  CN[C@@H]1[C@H](O)[C@H](NC)[C@H]2O[C@]3(O)[C@H](O[C@@H]2[C@H]1O)O[C@H](C)C[C@H]3NC(=O)Cc1ccc(O)cn1.Cl.Cl.Cl            30.7
6  Br.Br.Br.CN[C@@H]1[C@H](O)[C@H](NC)[C@H]2O[C@]3(O)[C@H](O[C@@H]2[C@H]1O)O[C@H](C)C[C@H]3NC(=O)Cc1nc2ccccc2[nH]1            12.1
7  Br.Br.Br.CN[C@@H]1[C@H](O)[C@H](NC)[C@H]2O[C@]3(O)[C@H](O[C@@H]2[C@H]1O)O[C@H](C)C[C@H]3NC(=O)Cc1cc(Cl)c(OC)cn1            72.9

// next item, Protein binding mouse requested
Qu. Write down Protein binding mouse measured for item Br.Br.Br.CN[C@@H]1[C@H](O)[C@H](NC)[C@H]2O[C@]3(O)[C@H](O[C@@H]2[C@H]1O)O[C@H](C)C[C@H]3NC(=O)Cc1ccc(OC)cn1
Ans. 57.3
